target: MAO‐A (Homo sapiens, UniProt P21397); experiment: MAO-A inhibition assay (Amplex red fluorescence, tyramine substrate); assay type: biochemical; settings: percent inhibition observed at 100 μM
Sequence (P21397 whole entry): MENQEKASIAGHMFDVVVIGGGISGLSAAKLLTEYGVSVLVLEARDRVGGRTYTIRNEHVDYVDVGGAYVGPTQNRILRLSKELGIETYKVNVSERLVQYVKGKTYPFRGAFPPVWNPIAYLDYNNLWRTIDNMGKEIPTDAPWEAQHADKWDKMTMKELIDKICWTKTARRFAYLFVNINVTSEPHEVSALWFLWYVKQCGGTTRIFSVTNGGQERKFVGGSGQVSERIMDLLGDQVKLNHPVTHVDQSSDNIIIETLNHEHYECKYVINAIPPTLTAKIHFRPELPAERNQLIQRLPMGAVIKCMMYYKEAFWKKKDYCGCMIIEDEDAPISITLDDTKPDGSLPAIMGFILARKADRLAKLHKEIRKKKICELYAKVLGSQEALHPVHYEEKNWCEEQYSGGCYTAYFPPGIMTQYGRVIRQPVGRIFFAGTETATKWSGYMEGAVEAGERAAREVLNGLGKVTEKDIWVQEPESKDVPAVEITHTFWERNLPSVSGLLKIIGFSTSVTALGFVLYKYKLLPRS
The entries below are paired with their reported inhibition at 100 µM.

CCOC(=O)C1=C(Nc2ccc(OC)cc2)CC(c2ccc(Cl)cc2)N(c2ccc(OC)cc2)C1c1ccc(Cl)cc1 (stereo not shown) [4 i]
< 50%
CCOC(=O)C1=C(Nc2ccc(Cl)cc2)CC(c2ccccc2)N(c2ccc(Cl)cc2)C1c1ccccc1 (stereo not shown) [4 b]
40%
CCOC(=O)C1=C(Nc2ccc(C)cc2)CC(c2ccc(Cl)cc2)N(c2ccc(C)cc2)C1c1ccc(Cl)cc1 (stereo not shown) [4 j]
< 50%

# ---- query molecule ----
Using known records, supply inhibition at 100 µM for CCOC(=O)C1=C(Nc2ccc(Br)cc2)CC(c2ccc(Cl)cc2)N(c2ccc(Br)cc2)C1c1ccc(Cl)cc1 (stereo not shown) [4 h]
< 50%
